Target: the molecule itself
Test: SEC-SAXS; variants in GDAP1Δ303–358; 100 μl at 1.7–36 mg/ml (maximum concentration for each variant) injected onto a BioSEC3-300 column, 25 mM HEPES pH 7.5, 300 mM NaCl, +15°C; top of the peak analysed

{"PROTEIN": "GDAP1Δ303–358 A247V (domain or fragment, human, UniProt Q8TB36-1 1-302, looked up, human GDAP1 lacking residues 303-358 (GDAP1Δ303–358) with the CMT-linked mutation A247V; CMT disease variant; source: E. coli BL21(DE3), autoinduction, purified (Ni-NTA, TEV cleavage, reverse Ni-NTA, SEC); not shown: His6, N-terminal, cleaved) MAERQEEQRGSPPLRAEGKADAEVKLILYHWTHSFSSQKVRLVIAEKALKCEEHDVSLPLSEHNEPWFMRLNSTGEVPVLIHGENIICEATQIIDYLEQTFLDERTPRLMPDKESMYYPRVQHYRELLDSLPMDAYTHGCILHPELTVDSMIPAYATTRIRSQIGNTESELKKLAEENPDLQEAYIAKQKRLKSKLLDHDNVKYLKKILDELEKVLDQVETELQRRNEETPEEGQQPWLCGESFTLVDVSLAVTLHRLKFLGFARRNWGNGKRPNLETYYERVLKRKTFNKVLGHVNNILIS", "stoichiometry N": 2}
